Values were extracted from paper PMC2756588.

Provide the reported SPOT intensity of each item.
Target: GST
Assay: SPOT array
Details: median of control spots 978
Numbers only.

Please review the entries below; each comes with its answer.
[[record]]
binder = "APKREAPKPPANTSP"
measurednumber = 0

[[record]]
binder = "NPNRRAPRRPLSTQH"
measurednumber = 0

[[record]]
binder = "YHSRRHPLALGFKYV"
measurednumber = 0


Please state, for each entry, its recorded SPOT intensity.
1. DAPASKPSVPPRNYF
2. VPVAPPPPPASLGQS
3. HKVLRPFLLRRLKKD
4. DRIRMFIRFPKFLLE
5. ATNVPVAPPPPPASL
6. QFDLKMPSKPIHNLK
7. VQPTAAPATPPRHIS

Given back:
1. 0
2. 0
3. 0
4. 0
5. 0
6. 0
7. 0

Please state, for each entry, its recorded SPOT intensity.
1. MFLISPPASPPPEFD
2. SAPDIPPRSPNRNAH

Given back:
1: 0; 2: 0
